# EXPERIMENT_DESCRIPTION: physchem
# APPLIED_CONDITIONS: water
EXPERIMENTAL_READOUT: solubility

Query (compound): "C[C@@H](NC(=O)[C@H]1CC[C@H](CNC(=O)CN2CCN(CC(=O)O)CCN(CC(=O)O)CCN(CC(=O)O)CC2)CC1)C(=O)N1CCC[C@H]1B(O)O" ; field requested: solubility > 50 mg/mL

----------
Reported values of IC50 for individual entries
# TARGET_OF_ASSAY: recombinant human dipeptidyl peptidase IV (DPPIV) (Homo sapiens (Human), UniProt P27487)
# Sequence (P27487 whole entry): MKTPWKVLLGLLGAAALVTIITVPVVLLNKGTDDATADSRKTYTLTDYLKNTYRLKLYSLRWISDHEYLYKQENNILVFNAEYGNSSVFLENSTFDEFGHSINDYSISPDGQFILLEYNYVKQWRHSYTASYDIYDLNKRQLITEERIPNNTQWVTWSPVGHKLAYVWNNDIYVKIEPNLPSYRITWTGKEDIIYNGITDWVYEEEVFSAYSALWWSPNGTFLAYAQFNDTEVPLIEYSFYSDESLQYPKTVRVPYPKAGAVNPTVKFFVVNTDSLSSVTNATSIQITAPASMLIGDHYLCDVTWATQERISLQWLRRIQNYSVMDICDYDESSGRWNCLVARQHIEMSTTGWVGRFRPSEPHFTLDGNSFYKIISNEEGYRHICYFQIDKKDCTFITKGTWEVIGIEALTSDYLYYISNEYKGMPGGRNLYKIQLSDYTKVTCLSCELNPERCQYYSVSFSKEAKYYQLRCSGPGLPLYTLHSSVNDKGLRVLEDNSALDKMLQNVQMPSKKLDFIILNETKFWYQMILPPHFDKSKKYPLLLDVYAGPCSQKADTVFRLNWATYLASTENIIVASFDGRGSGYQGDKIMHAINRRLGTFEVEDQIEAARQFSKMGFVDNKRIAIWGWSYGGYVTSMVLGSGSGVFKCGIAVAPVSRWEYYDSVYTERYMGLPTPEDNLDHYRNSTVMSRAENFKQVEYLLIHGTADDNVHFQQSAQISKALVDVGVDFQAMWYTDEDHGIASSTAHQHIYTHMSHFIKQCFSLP
# EXPERIMENT_DESCRIPTION: In vitro assay dipeptidyl peptidase IV IC50 (Example 21)
# Format: biochemical
# APPLIED_CONDITIONS: Gly-Pro-AMC; 0.1 nM enzyme

Some molecules with recorded IC50:
INSERT INTO measurements (molecule, measured_value) VALUES
  ('C[C@@H](NC(=O)[C@H]1CC[C@H](CNC(=O)CN2CCN3CCN4CCN(CC2)CC(=O)[O][Lu]([O]C(=O)C3)[O]C(=O)C4)CC1)C(=O)N1CCC[C@H]1B(O)O [6952 LU]', '> 100 µM'),
  ('CC(C)[C@H](NC(=O)CNC(=O)CC[C@H](C(=O)O)N1CCN(CC(=O)O)CCN(CC(=O)O)CCN(CC(=O)O)CC1)C(=O)N[C@H](C)C(=O)N1CCC[C@H]1B(O)O [6795D]', '> 100 µM');

Give the measured IC50 of C[C@@H](NC(=O)[C@H]1CC[C@H](CNC(=O)CN2CCN(CC(=O)O)CCN(CC(=O)O)CCN(CC(=O)O)CC2)CC1)C(=O)N1CCC[C@H]1B(O)O [compound 6952] . > 100 µM

----------
# TARGET_OF_ASSAY: recombinant human FAP (Homo sapiens (Human), UniProt Q12884)
# EXPERIMENT_DESCRIPTION: In vitro enzyme IC50 assay, FAP (Example 16)
# Format: biochemical
# APPLIED_CONDITIONS: 10 min preincubation at 25° C.; Z-Gly-Pro-AMC
The entries below are paired with their reported IC50.
# number only, unit nM dropped from output

Worked cases, IC50 given:
INSERT INTO results (compound, measured_value) VALUES
  ('C[C@@H](NC(=O)c1ccc(NNC(=O)CNC(=O)CN2CCN(CC(=O)O)CCN(CC(=O)O)CCN(CC(=O)O)CC2)cc1)C(=O)N1CCC[C@H]1B(O)O [6487S, DOTA-Gly-HyBz-D-Ala-boroPro]', 2.1),
  ('C[C@@H](NC(=O)c1ccc(NNC(=O)CN2CCN3CCN(CC(=O)O)CCN(CC2)CC(=O)[O][Cu][O]C(=O)C3)cc1)C(=O)N1CCC[C@H]1B(O)O [compound 6481, DOTA[Cu(II)]-HyBz-D-Ala-boroPro]', 10.3),
  ('C[C@@H](NC(=O)c1ccc(NNC(=O)CCNC(=O)CN2CCN(CC(=O)O)CCN(CC(=O)O)CCN(CC(=O)O)CC2)cc1)C(=O)N1CCC[C@H]1B(O)O [6488S, DOTA-betaAla-HyBz-D-Ala-boroPro]', 8.8),
  ('C[C@@H](NC(=O)c1ccc(NNC(=O)CN2CCN(CC(=O)O)CCN(CC(=O)O)CCN(CC(=O)O)CC2)cc1)C(=O)N1CCC[C@H]1B(O)O [4536B, DOTA-HyBz-D-Ala-boroPro]', 2.7);

# input for lookup
Recorded IC50 of C[C@@H](NC(=O)c1ccc(NNC(=O)CCCCCNC(=O)CN2CCN(CC(=O)O)CCN(CC(=O)O)CCN(CC(=O)O)CC2)cc1)C(=O)N1CCC[C@H]1B(O)O [6486S, DOTA-EACA-HyBz-D-Ala-boroPro] , please. 1.7

----------
# TARGET_OF_ASSAY: recombinant human fibroblast activation protein (FAP) (Homo sapiens (Human), UniProt Q12884)
# Sequence (Q12884 whole entry): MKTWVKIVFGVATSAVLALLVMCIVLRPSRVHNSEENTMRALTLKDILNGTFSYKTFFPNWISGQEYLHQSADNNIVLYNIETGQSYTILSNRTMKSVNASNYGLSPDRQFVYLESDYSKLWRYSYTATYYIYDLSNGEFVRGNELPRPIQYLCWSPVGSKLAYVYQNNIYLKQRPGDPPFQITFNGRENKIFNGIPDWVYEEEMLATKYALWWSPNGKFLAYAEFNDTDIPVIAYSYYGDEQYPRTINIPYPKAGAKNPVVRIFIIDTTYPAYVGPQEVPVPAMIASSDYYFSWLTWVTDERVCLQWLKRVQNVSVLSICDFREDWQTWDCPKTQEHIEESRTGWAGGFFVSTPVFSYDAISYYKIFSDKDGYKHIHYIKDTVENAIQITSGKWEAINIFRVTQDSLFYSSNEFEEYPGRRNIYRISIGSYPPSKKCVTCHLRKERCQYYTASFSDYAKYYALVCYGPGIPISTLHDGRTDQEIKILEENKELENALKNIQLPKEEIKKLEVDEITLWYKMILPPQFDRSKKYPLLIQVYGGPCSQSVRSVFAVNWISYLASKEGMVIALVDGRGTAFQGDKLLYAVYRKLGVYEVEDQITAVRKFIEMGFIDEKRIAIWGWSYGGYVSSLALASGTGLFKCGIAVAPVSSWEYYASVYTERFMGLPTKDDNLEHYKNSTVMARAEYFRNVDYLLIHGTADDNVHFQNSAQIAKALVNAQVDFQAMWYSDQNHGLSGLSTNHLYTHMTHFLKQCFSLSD
# EXPERIMENT_DESCRIPTION: In vitro assay fibroblast activation protein IC50 (Example 21)
# Assay type: biochemical
EXPERIMENTAL_READOUT: pIC50
Please express pIC50 as -log10 of the molar concentration.

INSERT INTO measurements (molecule, experimental_readout, measured_value) VALUES
  ('C[C@@H](NC(=O)c1ccc(NNC(=O)CCNC(=O)CN2CCN3CCN(CC(=O)O)CCN(CC2)CC(=O)[O][Cu][O]C(=O)C3)cc1)C(=O)N1CCC[C@H]1B(O)O [compound 6488, DOTA[Cu]-betaAla-HyBz-D-Ala-boroPro]', 'pIC50', 7.46),
  ('C[C@@H](NC(=O)c1ccc(NC(=O)CN2CCN3CCN4CCN(CC2)CC(=O)[O][Ga]([O]C(=O)C3)[O]C(=O)C4)cc1)C(=O)N1CCC[C@H]1B(O)O [6572GA]', 'pIC50', 7.60);

Which pIC50 is reported for this molecule? C[C@@H](NC(=O)c1ccc(NNC(=O)CNC(=O)CN2CCN3CCN(CC(=O)O)CCN(CC2)CC(=O)[O][Cu][O]C(=O)C3)cc1)C(=O)N1CCC[C@H]1B(O)O [6487CU] 8.06

----------
# TARGET_OF_ASSAY: recombinant human FAP (Homo sapiens (Human), UniProt Q12884)
# EXPERIMENT_DESCRIPTION: In vitro enzyme IC50 assay, FAP (Example 16)
# APPLIED_CONDITIONS: 10 min preincubation at 25° C.; Z-Gly-Pro-AMC
EXPERIMENTAL_READOUT: pIC50
Please keep in mind that pIC50 is minus log10 of the molar concentration; only the number is needed.

What measured pIC50 is associated with C[C@@H](NC(=O)c1ccc(NC(=O)CN2CCN3CCN(CC(=O)O)CCN(CC2)CC(=O)[O][Cu][O]C(=O)C3)cc1)C(=O)N1CCC[C@H]1B(O)O [6572CU, DOTA[Cu(II)]-PABA-D-Ala-boroPro] on recombinant human FAP (Homo sapiens (Human), UniProt Q12884)? 7.90

Provide the documented pIC50 with recombinant human FAP (Homo sapiens (Human), UniProt Q12884) as the system for C[C@@H](NC(=O)c1ccc(NNC(=O)CCCNC(=O)CN2CCN(CC(=O)O)CCN(CC(=O)O)CCN(CC(=O)O)CC2)cc1)C(=O)N1CCC[C@H]1B(O)O [6489S, DOTA-GABA-HyBz-D-Ala-boroPro] 9.10

State its pIC50 on recombinant human FAP (Homo sapiens (Human), UniProt Q12884): C[C@@H](NC(=O)c1ccc(NNC(=O)CCNC(=O)CN2CCN3CCN(CC(=O)O)CCN(CC2)CC(=O)[O][Cu][O]C(=O)C3)cc1)C(=O)N1CCC[C@H]1B(O)O [compound 6488, DOTA[Cu]-betaAla-HyBz-D-Ala-boroPro] 7.46

What value of pIC50 on recombinant human FAP (Homo sapiens (Human), UniProt Q12884) does "CC(C)[C@H](NC(=O)CNC(=O)CN1CCN(CC(=O)O)CCN(CC(=O)O)CCN(CC(=O)O)CC1)C(=O)N[C@H](C)C(=O)N1CCC[C@H]1B(O)O" have? 8.16

What pIC50 appears in the records for this compound with recombinant human FAP (Homo sapiens (Human), UniProt Q12884)? "N[C@@H](CCCCNC(=O)CN1CCN(CC(=O)O)CCN(CC(=O)O)CCN(CC(=O)O)CC1)C(=O)N1CCC[C@H]1B(O)O" 8.49

----------
# TARGET_OF_ASSAY: recombinant human fibroblast activation protein (FAP) (Homo sapiens (Human), UniProt Q12884)
# EXPERIMENT_DESCRIPTION: In vitro assay fibroblast activation protein IC50 (Example 21)
# Assay type: biochemical
# APPLIED_CONDITIONS: Z-Gly-Pro-AMC; 1.2 nM enzyme
Square brackets hold non-standard residues; d marks the D form. Peptide text beside a SMILES is read from it. * marks the point of attachment. DOTAGA = O=C(O)CN1CCN(CC(=O)O)CCN(C(CCC(=O)*)C(=O)O)CCN(CC(=O)O)CC1; boroPro = OB(O)[C@@H]1CCCN1*
The entries below are paired with their reported pIC50.
# reply with the number alone; pIC50 is -log10 of concentration in mol/L

INSERT INTO measurements (molecule, experimental_readout, measured_value) VALUES
  ('CC(C)[C@H](NC(=O)CNC(=O)CNC(=O)CNC(=O)CCC(C(=O)O)N1CCN(CC(=O)O)CCN(CC(=O)O)CCN(CC(=O)O)CC1)C(=O)N[C@H](C)C(=O)N1CCC[C@H]1B(O)O (some centres unmarked) [compound 6808] ({DOTAGA}-GGGV[dA]-boroPro)', 'pIC50', 7.94);

As a next step, examine the molecule that follows.
What pIC50 value was documented for this molecule, "CC(C)[C@H](NC(=O)CNC(=O)CN1CCN(CC(=O)O)CCN(CC(=O)O)CCN(CC(=O)O)CC1)C(=O)N[C@H](C)C(=O)N1CCC[C@H]1B(O)O" ? 8.16
